target: LXRα (Homo sapiens (Human)); assay: LXR luciferase transcriptional reporter gene assay, Gal4-LXRα LBD in HEK293 cells; conditions: pG5-Luc luciferase reporter, 16 h, read-out: LXRα CELL EC50
Sequence (Q13133 209-447): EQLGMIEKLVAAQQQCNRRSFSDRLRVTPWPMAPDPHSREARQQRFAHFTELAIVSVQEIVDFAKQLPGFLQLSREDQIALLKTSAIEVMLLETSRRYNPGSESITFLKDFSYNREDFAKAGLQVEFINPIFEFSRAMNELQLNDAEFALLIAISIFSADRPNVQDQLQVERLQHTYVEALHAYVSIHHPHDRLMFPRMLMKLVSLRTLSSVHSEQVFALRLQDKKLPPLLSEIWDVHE
Listing of entries alongside the reported EC50.
# output: number + unit

- compound: "CC(C)[C@H]1c2nc3cc(CO)c(S(C)(=O)=O)cc3n2CCN1c1nccc(C(F)(F)F)n1 (single isomer, unassigned)"
  EC50: "17300 nM"
- compound: "CC(C)[C@@H]1c2cc3ccc(S(C)(=O)=O)cc3n2CCN1c1nccc(C(F)(F)F)n1 (single isomer, unassigned)"
  EC50: "1100 nM"

# evaluate next
Form field EC50 for item CC(C)[C@@H]1c2nc3cc(CO)c(S(C)(=O)=O)cc3n2CCN1c1nccc(C(F)(F)F)n1 (single isomer, unassigned) on LXRα (Homo sapiens (Human)): 340 nM

====

Listing of entries alongside the reported pKi.
biological target: LXRβ ligand binding domain (LBD) (Homo sapiens (Human), UniProt P55055)
Would you please state pKi, meaning minus log10 of the concentration in mol/L, as a bare number?

Study these solved cases before continuing.
- compound: "CC(C)C1c2nc3ccc(S(C)(=O)=O)cc3n2CCN1c1nccc(C(F)(F)F)n1 (stereo not shown) [Compound E1]"
  study_system: "LXRβ ligand binding domain (LBD) (Homo sapiens (Human), UniProt P55055)"
  pKi: 6.59
- compound: "CC(C)[C@@H]1c2nc3cc(CO)c(S(C)(=O)=O)cc3n2CCN1c1nccc(C(F)(F)F)n1 (single isomer, unassigned)"
  study_system: "LXRβ ligand binding domain (LBD) (Homo sapiens (Human), UniProt P55055)"
  pKi: 7.70

# evaluate next
Looking up CC(C)[C@H]1c2cc3cc(CO)c(S(C)(=O)=O)cc3n2CCN1c1nccc(C(F)(F)F)n1 (single isomer, unassigned) , I found its pKi recorded as 6.07

====

molecular target: LXRα ligand binding domain (LBD) (Homo sapiens (Human))
Sequence (Q13133 209-447): as the sequence (Q13133 209-447) above
endpoint: pKi
Would you please state pKi, meaning minus log10 of the concentration in mol/L, as a bare number?

Study these solved cases before continuing.
- compound: "CC(C)C1c2nc3ccc(S(C)(=O)=O)cc3n2CCN1c1nccc(C(F)(F)F)n1 (centres unmarked) [Compound E1]"
  study_system: "LXRα ligand binding domain (LBD) (Homo sapiens (Human))"
  readout_value: 5.75
- compound: "CC(C)[C@@H]1c2cc3ccc(S(C)(=O)=O)cc3n2CCN1c1nccc(C(F)(F)F)n1 (single isomer, unassigned)"
  study_system: "LXRα ligand binding domain (LBD) (Homo sapiens (Human))"
  readout_value: 6.40

# evaluate next
Form field pKi for item CC(C)[C@@H]1c2nc3cc(CO)c(S(C)(=O)=O)cc3n2CCN1c1nccc(C(F)(F)F)n1 (single isomer, unassigned) on LXRα ligand binding domain (LBD) (Homo sapiens (Human)): 6.50

====

Listing of entries alongside the reported pEC50.
molecular target: LXRβ (Homo sapiens (Human), UniProt P55055); assay: LXR luciferase transcriptional reporter gene assay, Gal4-LXRβ LBD in HEK293 cells; conditions: pG5-Luc luciferase reporter, 16 h, read-out: LXRβ CELL EC50
Sequence (P55055 222-460): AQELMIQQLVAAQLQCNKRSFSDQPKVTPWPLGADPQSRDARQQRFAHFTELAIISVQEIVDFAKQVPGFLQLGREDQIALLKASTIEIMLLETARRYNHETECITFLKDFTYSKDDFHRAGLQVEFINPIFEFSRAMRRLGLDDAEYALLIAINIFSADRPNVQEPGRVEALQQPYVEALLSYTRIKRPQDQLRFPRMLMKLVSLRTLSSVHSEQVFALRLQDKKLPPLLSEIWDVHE
Would you please state pEC50, meaning minus log10 of the concentration in mol/L, as a bare number?

- compound: "CC(C)C1c2nc3ccc(S(C)(=O)=O)cc3n2CCN1c1nccc(C(F)(F)F)n1 (centres unmarked) [Compound E1]"
  study_system: "LXRβ (Homo sapiens (Human), UniProt P55055)"
  readout_value: 6.50
- compound: "CC(C)[C@H]1c2nc3cc(CO)c(S(C)(=O)=O)cc3n2CCN1c1nccc(C(F)(F)F)n1 (single isomer, unassigned)"
  study_system: "LXRβ (Homo sapiens (Human), UniProt P55055)"
  readout_value: 5.16
- compound: "CC(C)[C@@H]1c2cc3cc(CO)c(S(C)(=O)=O)cc3n2CCN1c1nccc(C(F)(F)F)n1 (single isomer, unassigned)"
  study_system: "LXRβ (Homo sapiens (Human), UniProt P55055)"
  readout_value: 8.00

# evaluate next
Looking up CC(C)[C@@H]1c2nc3cc(CO)c(S(C)(=O)=O)cc3n2CCN1c1nccc(C(F)(F)F)n1 (single isomer, unassigned) , I found its pEC50 recorded as 7.89

====

biological target: LXRα (Homo sapiens (Human)); experiment: LXR luciferase transcriptional reporter gene assay, Gal4-LXRα LBD in HEK293 cells; conditions: pG5-Luc luciferase reporter, 16 h, read-out: LXRα CELL EC50
endpoint: pEC50
Would you please state pEC50, meaning minus log10 of the concentration in mol/L, as a bare number?

- compound: "CC(C)C1c2nc3ccc(S(C)(=O)=O)cc3n2CCN1c1nccc(C(F)(F)F)n1 (stereo not shown) [Compound E1]"
  study_system: "LXRα (Homo sapiens (Human))"
  pEC50: 5.47

# evaluate next
Looking up CC(C)[C@@H]1c2cc3cc(CO)c(S(C)(=O)=O)cc3n2CCN1c1nccc(C(F)(F)F)n1 (single isomer, unassigned) , I found its pEC50 recorded as 6.79
